Values were extracted from PubChem BioAssay (NCI).

# Test system: SNB-19 CNS
# Assay text: NCI tumour cell line growth inhibition, 48 h
Property name: GI50

-- ask Using known records, supply GI50 for "Cc1cccc(Cn2cc(CO)c3cnccc32)c1"
-- reply > 100 µM

Others:
-- ask Check the records and state GI50 for COc1ccc(C(O)c2cc3c(N)c(C(=O)Nc4cccc5ccccc45)sc3nc2C)cc1 (stereo not drawn)
-- reply 0.469 µM

-- ask Given "O=C(Nc1ccc(OC(F)(F)Cl)cc1)c1cnc(N2CC[C@@H](O)C2)c(-c2ccn[nH]2)c1" , respond with its GI50.
-- reply 12.9 µM

====

# System: MALME-3M melanoma
# Assay text: NCI tumour cell line growth inhibition, 48 h
Property name: GI50

-- ask Please report GI50 for the following compound: "COc1ccc(-c2[nH]c3ccc(OC)cc3c2C=C(C#N)C#N)cc1"
-- reply > 100 µM

-- ask Determine its reported GI50: "OCCCCC#Cc1ccccc1C#Cc1cccc(C(F)(F)F)c1"
-- reply 26 µM

-- ask Entry CSc1nc2nc(-c3ccccc3)c(C)c-2c2n1C(C)C(=O)N2 (stereo not given) needs its GI50 filled in; supply it.
-- reply 43.1 µM

-- ask Give a short answer stating reported GI50 for CCCCS(=O)c1sc2nc(-c3cccs3)cc(-c3ccccc3)c2c1N (stereo not given) .
-- reply 26.1 µM

New cases:
-- ask Identify measured GI50 associated with "O=C(COc1ccc(/C=C2\Oc3ccccc3C2=O)cc1)Nc1nc2ccccc2s1"
-- reply 3.94 µM

====

Overview of recorded TGI for various compounds
# Tested on: OVCAR-8 ovarian
# Assay text: NCI tumour cell line growth inhibition, 48 h

-- ask Give TGI for "Cn1c(CNc2ccc(-c3n[nH]c(=S)n3C)cc2)n[nH]c1=S" tested on OVCAR-8 ovarian.
-- reply > 100 µM

---
-- ask Report TGI on OVCAR-8 ovarian for this entry: "Cc1cc(C)c(-c2no/c(=N\S(=O)(=O)c3ccc(Cl)cc3)o2)c(C)c1"
-- reply > 100 µM

-- ask Report measured TGI on OVCAR-8 ovarian; entry: C=CCNC(=O)C(C)C1CCC2(C)C=CC(=O)C(C)=C2C1O (stereo not drawn)
-- reply > 100 µM

-- ask System OVCAR-8 ovarian. Read-out TGI. Item "COC(=O)c1c(C)cccc1/C=C1\Cc2ccc(C)c(C)c2C1=O" . Report value.
-- reply > 100 µM

-- ask Provide the reported TGI (system: OVCAR-8 ovarian) for COc1ccc(C(O)c2cc3c(N)c(C(=O)Nc4cccc5ccccc45)sc3nc2C)cc1 (stereo not drawn)
-- reply > 100 µM

-- ask Give TGI; test system OVCAR-8 ovarian; compound "CCc1cccc(CC)c1NC(=O)/C(Cl)=C(/Cl)C(=O)O"
-- reply 33.3 µM

====

# Test system: RPMI-8226 leukemia
# Assay text: NCI tumour cell line growth inhibition, 48 h
Property name: TGI

Study these solved cases before continuing.
-- ask Indicate the recorded TGI value for this compound: CCCCCCCCCCCCCCCCCCNc1ccn(C2OC(COP(=O)(O)OCC3OC(n4ccc(N)nc4=O)C(O)C3O)C(O)C2O)c(=O)n1 (centres undefined)
-- reply > 100 µM

-- ask Provide TGI value for the following compound: Cc1ccc(OCC2OC(n3cnc4c(Cl)nc(Nc5cc(Cl)cc(Cl)c5)nc43)CC2Oc2ccc(C)cc2)cc1 (centres undefined)
-- reply > 100 µM

-- ask Please supply the value of reported TGI for the item "COc1ccccc1CNCCN1C(=O)c2ccc3c4c(ccc(c24)C1=O)C(=O)N(CCNCc1ccccc1OC)C3=O"
-- reply 0.955 µM

Now examine the next entry.
-- ask Determine from records and report TGI for CCN(/C=C1/C(=O)C(c2ccccc2)N(c2ccccc2)C1=O)CC (centres undefined)
-- reply > 10 µM

====

# Tested on: COLO 205 colon
# Assay text: NCI tumour cell line growth inhibition, 48 h
Property name: TGI

Past entries and their recorded results:
-- ask Fill in: TGI on COLO 205 colon, entry "[O]=[V]([OH])([OH])[OH]"
-- reply > 100 µM

-- ask // output TGI; input "COCCN(CCOC)c1nc(-c2ccccc2)nc2ccccc12" ; system COLO 205 colon
-- reply > 100 µM

-- ask Return reported TGI for target or system COLO 205 colon, item "COC(=O)[C@H](Cc1ccccc1)NC(=O)c1ccc(CNC(=O)/C=C/c2csc(-c3ccccc3)n2)cc1" .
-- reply > 83.2 µM

-- ask Give TGI only, for "OC(c1ccccc1Br)(c1ccccc1Br)C(F)(F)F" , using COLO 205 colon data.
-- reply 33.1 µM

Here's the next entry for you.
-- ask Param request: TGI | system COLO 205 colon | item "COC(=O)c1cc2c(cc1Cl)Sc1nnc(Nc3ccccc3)n1S2(=O)=O"
-- reply 19.5 µM

====

# System: A498 renal
# Assay text: NCI tumour cell line growth inhibition, 48 h
Reported TGI by item:

-- ask Assign TGI to the following record: "Nc1nccc(-c2c(-c3ccc(F)cc3)nn3cc(C(F)(F)F)ccc23)n1"
-- reply > 25 µM

-- ask Answer with reported TGI of O=C1CC(c2cccc(Cl)c2)Nc2ccc(N3CCCC3)cc21 (stereo unspecified)
-- reply > 100 µM

-- ask Answer with the recorded TGI of CCOC(=O)C1(C)CCC(C(C(=O)O)C(=O)O)CC1=O (stereo unspecified) only.
-- reply > 100 µM

-- ask Entry "O=C1CC(c2ccc(Cl)cc2)=Nc2ccccc2N1" needs its TGI filled in; supply it.
-- reply > 100 µM

-- ask Give reported TGI value for "CSc1nncc(-c2cc3c(c(SC)n2)CCCC3)n1"
-- reply > 100 µM

Let us move to another entry and its TGI.
-- ask Assign TGI to the following record: "C=CCC(CCC(C)=O)(C(=O)OCC)C(=O)OCC"
-- reply > 100 µM

====

# System: NCI-H522 lung
# Assay text: NCI tumour cell line growth inhibition, 48 h
Here the recorded TGI is given for each entry.

Here is how some compounds turned out for TGI.
-- ask Answer briefly: TGI recorded on NCI-H522 lung for "Cc1cccc2sc(NC(=O)NS(=O)(=O)n3cnc4ccccc43)nc12"
-- reply 62.9 µM

-- ask Fill in: TGI on NCI-H522 lung, entry "O=c1cc(Nc2cccc(O)c2)[nH]c(=O)[nH]1"
-- reply > 100 µM

-- ask # return TGI of O=C1NC(=O)C2C(=O)NC(=O)C1C2Cc1ccco1 (stereo unspecified) (system: NCI-H522 lung)
-- reply > 100 µM

-- ask Please respond with reported TGI (system NCI-H522 lung) for "CN1CCN(c2c(F)cc(NC3=C(Cl)C(=O)c4ncccc4C3=O)cc2F)CC1" .
-- reply 3.82 µM

-- ask Give reported TGI for "O=[N+]([O-])c1ccc(-c2ccc(C3=Nn4c(CNc5ccccc5Cl)nnc4SC3)o2)cc1" (NCI-H522 lung)
-- reply > 100 µM

New cases:
-- ask Retrieve TGI on NCI-H522 lung; query "Cc1nc2sc3cccc(Cl)c3n2c(=O)c1N=Nc1ccc(Cl)cc1"
-- reply > 100 µM

-- ask Write down the reported TGI (system: NCI-H522 lung) of "CCOc1cnc(C(O)(c2ccccc2)c2ccccc2)o1"
-- reply > 100 µM

-- ask Report value: TGI, system: NCI-H522 lung, compound: "ClCCOCCn1cnc2c(Cl)nc(Cl)nc21"
-- reply 50 µM

-- ask Please tell me the measured TGI for O=C1c2ccccc2N2OC3(N4CCOCC4)CCCC3C12c1ccccc1 (stereo unspecified) ; system: NCI-H522 lung.
-- reply > 100 µM

-- ask Determine reported TGI for COC(=O)C(C(=O)C(=O)Nc1c(Cl)cc([N+](=O)[O-])cc1Cl)c1csc(-n2nc(C3=CCCCC3)cc2-c2ccccc2)n1 (stereo unspecified) ; test system: NCI-H522 lung.
-- reply > 100 µM

-- ask Please indicate recorded TGI of "Cc1nc2c(sc3nc4c(cc32)CCC4)c(=O)o1" measured with NCI-H522 lung.
-- reply 77.9 µM

====

TGI overview
# System: T-47D breast
# Assay text: NCI tumour cell line growth inhibition, 48 h

-- ask Consider the molecule "Cc1cc(C)c(-c2no/c(=N\S(=O)(=O)c3ccc(Cl)cc3)o2)c(C)c1" . State its measured TGI.
-- reply > 100 µM

-- ask Give TGI for CC(N)(CC(O)(C(F)(F)Cl)C(F)(F)Cl)C(=O)O (stereo not drawn)
-- reply > 10 µM

Please look at the following molecule next.
-- ask Determine from records and report TGI for "O=C1c2ccccc2C(=O)c2c(NC3CCCCC3)ccc(Nc3ccc(S(=O)(=O)O)cc3)c21"
-- reply > 100 µM

====

# Test system: SK-MEL-2 melanoma
# Assay text: NCI tumour cell line growth inhibition, 48 h
Form field: TGI (one value per entry).

// known answers, use as guide
-- ask Note down TGI recorded for COc1ccc(C(O)c2cc3c(N)c(C(=O)Nc4cccc5ccccc45)sc3nc2C)cc1 (centres undefined)
-- reply > 43.2 µM

-- ask Could you please provide reported TGI for "Cc1noc(NC(=O)Nc2ccccc2F)c1C#N" ? Thanks!
-- reply > 54.9 µM

-- ask Tell me TGI reported for "Nc1nccc(-c2c(-c3ccc(F)cc3)nn3cc(C(F)(F)F)ccc23)n1"
-- reply > 25 µM

-- ask Please give the documented TGI of O=C(NCCC1CNc2ccccc21)OCc1ccccc1 (centres undefined)
-- reply > 100 µM

-- ask State its TGI for this molecule: [B]C(=O)NC(CC(C)C)C(=O)NCC(=O)NC1c2ccsc2C(=O)C1O (centres undefined) (tested in a mixture with another compound)
-- reply > 100 µM

More entries:
-- ask Give the value of TGI reported for the following: C[C@@H]1CC[C@]2(C)C3(C)CC[C@]2(OC3=O)[C@@]12CC(c1ccoc1)OC2=O (some centres undefined)
-- reply > 100 µM

-- ask Please report the measured TGI for "NC1=NC(Cn2nc(-c3ccccc3)c3ccccc3c2=O)=NNC(=O)N1"
-- reply > 100 µM

-- ask Please give measured TGI of the following entry: "C=CCC(CCC(C)=O)(C(=O)OCC)C(=O)OCC"
-- reply > 100 µM

-- ask Provide measured TGI value, entry: "O=C(O)CN(CCN(CC(=O)O)CC(=O)O)CC(=O)O.[Mn+2]"
-- reply > 100 µM
